The reported measurements were obtained from ChEMBL document CHEMBL1148858.

- Measurement target: Human immunodeficiency virus type 1 reverse transcriptase (Human immunodeficiency virus 1, UniProt Q72547)
- Experiment summary: Inhibition of RNA dependent DNA polymerase activity of HIV1 recombinant reverse transcriptase
pIC50: −log10 of the molar value.
Quantity name: pIC50

[[record]]
substance_smiles = "O=c1[nH]c2ccc(Cl)cc2n1Cc1c(F)cccc1F"
quantity_name = "pIC50"
val = 6.15

[[record]]
substance_smiles = "Cc1cc(C)cc(S(=O)(=O)n2c(=O)[nH]c3ccc(Cl)cc32)c1"
quantity_name = "pIC50"
val = 8.30

[[record]]
substance_smiles = "Cc1cc(C)cc(Cn2c(=O)[nH]c3ccc(Cl)cc32)c1"
quantity_name = "pIC50"
val = 6.82

